Tested on: OVCAR-8
experiment: NCI tumour cell line growth inhibition, 48 h
The source made the active and inactive calls. Rule as the data show it: active = GI50 up to about 1.1 µM and inactive = higher.
Items are presented alongside their recorded GI50.

| compound | GI50 |
| --- | --- |
| CC[S+]1C2=C(CC(C)(C)CC2=O)[N-]c2ccccc21 (centres undefined) | > 100 µM (inactive) |

Query the reported GI50 for OVCAR-8; item: CC(=O)O[C@H]1[C@@H](N2CCOCC2)C[C@H]2[C@@H]3CC=C4C[C@@H](N5CCCC5)CC[C@]4(C)[C@H]3CC[C@@]21C
> 100 µM (inactive)

Query the reported GI50 for OVCAR-8; item: Cc1cc(NS(=O)(=O)c2ccc(NO)cc2)no1
41.1 µM (inactive)

Values were extracted from ChEMBL document CHEMBL1201862.
